Provenance of the data: patent EP0428272A2

Test: Pharmacokinetics in blood plasma after a single sublingual or per oral swallowed dose of quazepam 15 mg standard tablet
Assay type: in vivo, volunteer adult humans
Details: human; quazepam in plasma; time to Cmax; sublingual quazepam 15 mg; mean ± SD
Protocol: Test results will now be described. Testing was carried out using volunteer adult humans. Standard tablets containing, as active ingredient, solely quazepam or solely halazepam, were used. […]
Reported endpoint: Tmax (min)
Only the number, expressed in min, is required.

-- ask Data request, read-out Tmax, for Fc1ccccc1C1=NCC(=S)N(CC(F)(F)F)c2ccc(Cl)cc21
-- reply 46.8

* * *

Assay: Pharmacokinetics in blood plasma after a single sublingual or per oral swallowed dose of quazepam 15 mg standard tablet
Format: in vivo, volunteer adult humans
Conditions: human, plasma, 15 mg, quazepam in plasma; terminal elimination half-life; sublingual quazepam 15 mg; mean ± SD; read-out: t1/2 λ₂ (converted)
Reported endpoint: half-life (h)
Only the number, expressed in h, is required.

-- ask Data request, read-out half-life, for Fc1ccccc1C1=NCC(=S)N(CC(F)(F)F)c2ccc(Cl)cc21
-- reply 27.7

* * *

Test: Pharmacokinetics in blood plasma after a single sublingual or per oral swallowed dose of quazepam 15 mg standard tablet
Assay type: in vivo, volunteer adult humans
Details: human; quazepam in plasma; time to Cmax; oral quazepam 15 mg; mean ± SD
Reported endpoint: Tmax (h)
Only the number, expressed in h, is required.

-- ask Data request, read-out Tmax, for Fc1ccccc1C1=NCC(=S)N(CC(F)(F)F)c2ccc(Cl)cc21
-- reply 2.57

* * *

Assay: Pharmacokinetics in blood plasma after a single sublingual or per oral swallowed dose of quazepam 15 mg standard tablet
Assay type: in vivo, volunteer adult humans
Conditions: human; quazepam peak plasma concentration; oral quazepam 15 mg; mean ± SD
Reported endpoint: Cmax (ng/mL)
Only the number, expressed in ng/mL, is required.

-- ask Data request, read-out Cmax, for Fc1ccccc1C1=NCC(=S)N(CC(F)(F)F)c2ccc(Cl)cc21
-- reply 26.7

* * *

Test: Pharmacokinetics in blood plasma after a single sublingual or per oral swallowed dose of quazepam 15 mg standard tablet
Assay type: in vivo, volunteer adult humans
Details: human, plasma, po, 15 mg, quazepam in plasma; terminal elimination half-life; oral quazepam 15 mg; mean ± SD; read-out: t1/2 λ₂ (converted)
Reported endpoint: half-life (h)
Only the number, expressed in h, is required.

-- ask Data request, read-out half-life, for Fc1ccccc1C1=NCC(=S)N(CC(F)(F)F)c2ccc(Cl)cc21 [quazepam]
-- reply 24.6

* * *

Assay: Pharmacokinetics in blood plasma after a single sublingual or per oral swallowed dose of quazepam 15 mg standard tablet
Format: in vivo, volunteer adult humans
Settings: human, plasma, 15 mg, quazepam in plasma; rapid distribution half-life; sublingual quazepam 15 mg; mean ± SD; read-out: t1/2 λ₁ (converted)
Reported endpoint: half-life (h)
Only the number, expressed in h, is required.

-- ask Data request, read-out half-life, for Fc1ccccc1C1=NCC(=S)N(CC(F)(F)F)c2ccc(Cl)cc21 [quazepam]
-- reply 1.44

* * *

Assay: Pharmacokinetics in blood plasma after a single sublingual or per oral swallowed dose of quazepam 15 mg standard tablet
Assay type: in vivo, volunteer adult humans
Conditions: human; quazepam; area under plasma concentration-time curve; sublingual quazepam 15 mg; mean ± SD
Reported endpoint: AUC (ng·h/mL)
Only the number, expressed in ng·h/mL, is required.

-- ask Data request, read-out AUC, for Fc1ccccc1C1=NCC(=S)N(CC(F)(F)F)c2ccc(Cl)cc21
-- reply 1460

* * *

Assay: Pharmacokinetics in blood plasma after a single sublingual or per oral swallowed dose of quazepam 15 mg standard tablet
Format: in vivo, volunteer adult humans
Details: human; quazepam peak plasma concentration; sublingual quazepam 15 mg; mean ± SD
Reported endpoint: Cmax (ng/mL)
Only the number, expressed in ng/mL, is required.

-- ask Data request, read-out Cmax, for Fc1ccccc1C1=NCC(=S)N(CC(F)(F)F)c2ccc(Cl)cc21
-- reply 42.4

* * *

Assay: Pharmacokinetics in blood plasma after a single sublingual or per oral swallowed dose of quazepam 15 mg standard tablet
Format: in vivo, volunteer adult humans
Details: human, plasma, 15 mg, quazepam in plasma; absorption half-life; sublingual quazepam 15 mg; mean ± SD; read-out: t1/2 Ka (converted)
Reported endpoint: half-life (min)
Only the number, expressed in min, is required.

-- ask Data request, read-out half-life, for Fc1ccccc1C1=NCC(=S)N(CC(F)(F)F)c2ccc(Cl)cc21
-- reply 16.2

* * *

Assay: Pharmacokinetics in blood plasma after a single sublingual or per oral swallowed dose of quazepam 15 mg standard tablet
Assay type: in vivo, volunteer adult humans
Details: human, plasma, po, 15 mg, quazepam in plasma; rapid distribution half-life; oral quazepam 15 mg; mean ± SD; read-out: t1/2 λ₁ (converted)
Reported endpoint: half-life
Kindly write the number and append the unit.

-- ask Data request, read-out half-life, for Fc1ccccc1C1=NCC(=S)N(CC(F)(F)F)c2ccc(Cl)cc21 [quazepam]
-- reply 1.73 h

* * *

Experiment: Pharmacokinetics in blood plasma after a single sublingual or per oral swallowed dose of quazepam 15 mg standard tablet
Type: in vivo, volunteer adult humans
Conditions: human, plasma, po, 15 mg, quazepam in plasma; absorption half-life; oral quazepam 15 mg; mean ± SD; read-out: t1/2 Ka (converted)
Reported endpoint: half-life (min)
Only the number, expressed in min, is required.

-- ask Data request, read-out half-life, for Fc1ccccc1C1=NCC(=S)N(CC(F)(F)F)c2ccc(Cl)cc21
-- reply 46.2
